List of AC50 values.
# Tested System: human PAH with the R408W mutation (Homo sapiens, UniProt P00439, R408W)
# Construct: expressed in transfected cells
# Sequence (P00439 1-452 R408W): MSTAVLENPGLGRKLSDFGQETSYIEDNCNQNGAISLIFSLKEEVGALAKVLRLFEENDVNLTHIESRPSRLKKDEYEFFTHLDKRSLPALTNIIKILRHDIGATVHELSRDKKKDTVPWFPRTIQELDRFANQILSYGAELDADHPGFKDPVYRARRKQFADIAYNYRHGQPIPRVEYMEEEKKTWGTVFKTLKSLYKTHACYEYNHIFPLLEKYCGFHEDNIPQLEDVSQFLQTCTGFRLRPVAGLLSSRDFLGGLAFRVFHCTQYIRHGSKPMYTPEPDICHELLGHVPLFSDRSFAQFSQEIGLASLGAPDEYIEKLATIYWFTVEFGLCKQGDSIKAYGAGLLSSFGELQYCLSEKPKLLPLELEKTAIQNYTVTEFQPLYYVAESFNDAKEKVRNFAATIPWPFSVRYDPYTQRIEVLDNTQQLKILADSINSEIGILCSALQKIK
# Method Description: Cell Based Phenylalanine Flux Assay
# Condition Context: A375 cells expressing human R408W PAH; 24 hrs compound incubation; 13C-Tyrosine by LC-MS; average where tested multiple times; read-out: AC50

Compound | AC50
O=C(c1cnc(C2CC2)s1)N1CCc2[nH]cnc2[C@@H]1c1nc2ccccc2s1 | 1 to 5 µM

Query: Please give measured AC50 of the following entry: O=C(c1cnco1)N1CCc2[nH]cnc2[C@@H]1c1nc2c(F)cccc2s1 [Example 1224]
Reply: 1 to 5 µM

Query: Please give measured AC50 of the following entry: O=C(C1CC1(F)F)N1CCc2[nH]cnc2[C@@H]1c1nc2ccccc2s1 (single isomer, unassigned) [Example 1285]
Reply: > 5 µM

Query: Please give measured AC50 of the following entry: O=C(c1nnc(-c2ccccn2)o1)N1CCc2[nH]cnc2[C@@H]1c1nc2cc(F)ccc2s1
Reply: 0.5 to 1 µM

Query: Please give measured AC50 of the following entry: O=C(c1cnn(C2CC2)c1Cl)N1CCc2[nH]cnc2[C@@H]1c1nc2c(F)cccc2s1
Reply: 1 to 5 µM

###

# Tested System: human PAH with the R408W mutation (Homo sapiens, UniProt P00439, R408W)
# Construct: expressed in transfected cells
# Method Description: Cell Based Phenylalanine Flux Assay
# Condition Context: A375 cells expressing human R408W PAH; 24 hrs with compound; 13C-Tyrosine by LC-MS; average where tested multiple times; read-out: AC50
List of AC50 values.

Compound | Recorded Result
CNC(=O)N1CC(C(=O)N2CCc3[nH]cnc3C2c2nc3ccccc3s2)C1 (centres unmarked) | > 5 µM

Query: Please give measured AC50 of the following entry: Cn1nc(CC#N)nc1C(=O)N1CCc2[nH]cnc2[C@H]1c1nc2ccccc2s1 (single isomer, unassigned)
Reply: 1 to 5 µM

Query: Please give measured AC50 of the following entry: Cn1ccc(C(=O)N2CCc3[nH]cnc3C2c2nc3c(F)cccc3s2)n1 (centres unmarked)
Reply: > 5 µM

###

# Tested System: human PAH with the R408W mutation (Homo sapiens, UniProt P00439, R408W)
# Construct: expressed in transfected cells
# Sequence (P00439 1-452 R408W): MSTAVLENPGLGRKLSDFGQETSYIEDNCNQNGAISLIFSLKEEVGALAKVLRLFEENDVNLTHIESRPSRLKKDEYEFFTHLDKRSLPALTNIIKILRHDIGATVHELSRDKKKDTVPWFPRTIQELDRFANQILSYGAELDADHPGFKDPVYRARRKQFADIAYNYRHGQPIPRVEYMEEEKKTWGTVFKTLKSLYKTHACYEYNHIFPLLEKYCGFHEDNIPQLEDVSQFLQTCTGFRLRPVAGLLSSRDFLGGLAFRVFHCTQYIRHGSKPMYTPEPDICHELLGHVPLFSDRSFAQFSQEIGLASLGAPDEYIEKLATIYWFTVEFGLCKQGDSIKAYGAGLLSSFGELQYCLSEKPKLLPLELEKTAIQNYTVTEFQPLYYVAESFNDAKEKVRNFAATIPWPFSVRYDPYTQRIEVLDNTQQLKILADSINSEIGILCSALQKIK
# Method Description: Cell Based Phenylalanine Flux Assay
# Condition Context: A375 cells expressing human R408W PAH; 24 hrs compound incubation; 13C-Tyrosine by LC-MS; average where tested multiple times; read-out: AC50
List of AC50 values.

Line Notation | Tested System | AC50
O=C(c1cn[nH]c1C(F)F)N1CCc2[nH]cnc2[C@@H]1c1nc2ccccc2s1 | human PAH with the R408W mutation (Homo sapiens, UniProt P00439, R408W) | 1000 to 5000 nM
O=C(c1nnc(-c2ccn(C(F)F)n2)o1)N1CCc2[nH]cnc2[C@H]1c1nc2c(F)cccc2s1 | human PAH with the R408W mutation (Homo sapiens, UniProt P00439, R408W) | < 500 nM
O=C(c1cnn2ccccc12)N1CCc2[nH]cnc2[C@H]1c1nc2cccc(Cl)c2[nH]1 | human PAH with the R408W mutation (Homo sapiens, UniProt P00439, R408W) | 500 to 1000 nM

Query: Please give measured AC50 of the following entry: O=C(c1cnc(-c2ccccn2)o1)N1CC2(CC2)c2[nH]cnc2[C@@H]1c1nc2ccccc2s1
Reply: 1000 to 5000 nM

Query: Please give measured AC50 of the following entry: O=C(c1nnc(C2CC2)o1)N1CCc2[nH]cnc2[C@@H]1c1nc2c(F)cccc2s1
Reply: 1000 to 5000 nM

Query: Please give measured AC50 of the following entry: CN1CCN(c2nc(Br)c(C(=O)N3CCc4[nH]cnc4[C@@H]3c3nc4c(F)cccc4s3)o2)CC1
Reply: 1000 to 5000 nM

Query: Please give measured AC50 of the following entry: CC(C)(C)CCC(=O)N1CCc2[nH]cnc2[C@@H]1c1nc2ccccc2[nH]1
Reply: 1000 to 5000 nM

Query: Please give measured AC50 of the following entry: O=C(c1nncn1C1CC1)N1CCc2[nH]cnc2[C@@H]1c1nc2c(F)cccc2s1
Reply: 1000 to 5000 nM
